- System: influenza virus H3N2
- measurement protocol: Anti-H3N2 CPE inhibition assay in MDCK cells
- measurement setup: in vitro, CPE inhibition
measured endpoint: antiviral activity against influenza virus H3N2 (in words)

CC1=C2CC[C@@H](C)C[C@]2(OC(=O)c2ccc(F)cc2)OC1=O	little effect
CC1=C2CC[C@@H](C)C[C@]2(OC(=O)c2cccc(Cl)c2)OC1=O	little effect
CC1=C2CC[C@@H](C)C[C@]2(OC(=O)c2ccc(Cl)cc2)OC1=O	little effect
CC1=C2CC[C@@H](C)C[C@]2(OC(=O)c2ccc(Br)cc2)OC1=O	high antiviral activity
CC1=C2CC[C@@H](C)C[C@@]2(OC(=O)c2ccccc2Br)OC1=O	little effect

Q) What measured antiviral activity against influenza virus H3N2 (in words) goes with "CC1=C2CC[C@@H](C)C[C@]2(OC(=O)c2cccc(F)c2)OC1=O" ?
A) high antiviral activity

Q) What measured antiviral activity against influenza virus H3N2 (in words) goes with "CC1=C2CC[C@@H](C)C[C@]2(OC(=O)c2cccc(Br)c2)OC1=O" ?
A) little effect

Q) What measured antiviral activity against influenza virus H3N2 (in words) goes with "CC1=C2CC[C@@H](C)C[C@@]2(OC(=O)c2ccc(C(F)(F)F)cc2)OC1=O" ?
A) high antiviral activity

Q) What measured antiviral activity against influenza virus H3N2 (in words) goes with "CC1=C2CC[C@@H](C)C[C@]2(OC(=O)c2ccc(I)cc2)OC1=O" ?
A) little effect

Q) What measured antiviral activity against influenza virus H3N2 (in words) goes with "CC1=C2CC[C@@H](C)C[C@]2(OC(=O)c2cccc(I)c2)OC1=O" ?
A) little effect

====

# key: entry, value: TC50 (Antiviral activity against HSV-1 virus section)
- Test system: Vero cells
- measurement protocol: Cytotoxicity by CPE assay in Vero cells
- Type: cell-based
- measurement setup: cytotoxicity, Vero cells, 72 h, Reed-Muench method
- Experimental: The cytotoxicity was evaluated by cytopathic effect (CPE) inhibition assay. Vero cells were seeded into 96-well plates. After cells had been incubated for 24 h at 37 °C in 5% CO2, they were exposed to drugs with two-fold serial dilutions. Untreated Vero cells were used as controls. All cultures were incubated again in 5% CO2 at 37 °C for 72 h. The cells were examined microscopically for the cytotoxicity effects. Then TC50 were calculated by the Reed-Muench method.
Numbers only here, please. The scale is µM.

CC1=C2CC[C@@H](C)C[C@]2(OC(=O)c2ccc(Br)cc2)OC1=O	80.3
CC1=C2CC[C@@H](C)C[C@]2(OC(=O)c2cccc(Br)c2)OC1=O	80.3

Lab note: next compound to report on.
Q) What measured TC50 (Antiviral activity against HSV-1 virus section) goes with "CC1=C2CC[C@@H](C)C[C@@]2(OC(=O)c2ccccc2Br)OC1=O" ?
A) 80.3
